Details: in 1,4-dioxane, 295.65 K
observed property: solubility (mole fraction)
No unit in the answer, please; the number alone is enough.

stdin: I'd like to know its solubility (mole fraction). The compound in question is Cc1cccc([N+](=O)[O-])c1N
stdout: 0.236

====

Details: in ethanol, 313.15 K
observed property: solubility (mole fraction)
Just the number, please, no unit attached.

stdin: Returns the measured solubility (mole fraction) for the input molecule. Input: Cc1cccc([N+](=O)[O-])c1N
stdout: 0.042

====

Settings: in methanol, 298.15 K
observed property: solubility (mole fraction)
Answer field: number only, no words.

stdin: What value of solubility (mole fraction) has been recorded for this entry: Cc1cccc([N+](=O)[O-])c1N
stdout: 0.0172

====

Settings: in toluene, 288.15 K
observed property: solubility (mole fraction)
Give the figure by itself; no unit, no explanation.

stdin: Which measured solubility (mole fraction) value corresponds to Cc1cccc([N+](=O)[O-])c1N ?
stdout: 0.0375

====

Conditions: in isopropanol, 283.15 K
observed property: solubility (mole fraction)

stdin: Please report the recorded solubility (mole fraction) for Cc1cccc([N+](=O)[O-])c1N .
stdout: 0.0105

====

Settings: in cyclohexane, 285.65 K
observed property: solubility (mole fraction)
Please give only the number in your answer, with no unit.

stdin: What value of solubility (mole fraction) has been recorded for this entry: Cc1cccc([N+](=O)[O-])c1N
stdout: 0.00118

====

Conditions: in cyclohexane, 303.15 K
observed property: solubility (mole fraction)
Would you mind answering with just the numeric figure?

stdin: Reported solubility (mole fraction) for Cc1cccc([N+](=O)[O-])c1N : what is it?
stdout: 0.00318

====

Conditions: in 1,4-dioxane, 310.65 K
observed property: solubility (mole fraction)

stdin: Could you tell me which solubility (mole fraction) is on file for Cc1cccc([N+](=O)[O-])c1N ?
stdout: 0.323

====

Conditions: in acetone, 278.15 K
observed property: solubility (mole fraction)

stdin: Using the record for Cc1cccc([N+](=O)[O-])c1N , report its solubility (mole fraction).
stdout: 0.113

====

Conditions: in ethyl acetate, 293.15 K
observed property: solubility (mole fraction)
Respond using a number only.

stdin: What value of solubility (mole fraction) has been reported for the following molecule? Cc1cccc([N+](=O)[O-])c1N
stdout: 0.142

====

Conditions: in methanol, 293.15 K
observed property: solubility (mole fraction)

stdin: Dear colleague, I am looking for the recorded solubility (mole fraction) of the following molecule: Cc1cccc([N+](=O)[O-])c1N
stdout: 0.014

====

Details: in isopropanol, 313.15 K
observed property: solubility (mole fraction)

stdin: Can you look up the measured solubility (mole fraction) of Cc1cccc([N+](=O)[O-])c1N for me?
stdout: 0.0376

====

Conditions: in methanol, 305.65 K
observed property: solubility (mole fraction)
Just the number.

stdin: What value of solubility (mole fraction) has been recorded for this entry: Cc1cccc([N+](=O)[O-])c1N
stdout: 0.0234

====

Details: in cyclohexane, 300.65 K
observed property: solubility (mole fraction)
Reply with the value as a number alone.

stdin: Fill in the blank: the reported solubility (mole fraction) of Cc1cccc([N+](=O)[O-])c1N is ____.
stdout: 0.00279

====

Conditions: in acetone, 298.15 K
observed property: solubility (mole fraction)
Output spec: single numeric token, no unit.

stdin: What value of measured solubility (mole fraction) is listed for Cc1cccc([N+](=O)[O-])c1N ?
stdout: 0.203

====

Details: in acetonitrile, 308.15 K
observed property: solubility (mole fraction)
Respond with the number and no other words.

stdin: Field request: solubility (mole fraction) | item: Cc1cccc([N+](=O)[O-])c1N
stdout: 0.165

====

Conditions: in ethanol, 298.15 K
observed property: solubility (mole fraction)
Hey, just send me the number, nothing else.

stdin: Requested field: solubility (mole fraction). Item: Cc1cccc([N+](=O)[O-])c1N
stdout: 0.0233

====

Details: in methanol, 308.15 K
observed property: solubility (mole fraction)
Reply with just the number.

stdin: Reported solubility (mole fraction), compound Cc1cccc([N+](=O)[O-])c1N : ____
stdout: 0.0261

====

Conditions: in 1,4-dioxane, 305.65 K
observed property: solubility (mole fraction)
Output: the number by itself.

stdin: Would you mind telling me what solubility (mole fraction) value was observed for Cc1cccc([N+](=O)[O-])c1N ?
stdout: 0.291

====

Conditions: in isopropanol, 308.15 K
observed property: solubility (mole fraction)
Lab note: jot the number down without any unit.

stdin: Which solubility (mole fraction) value belongs to Cc1cccc([N+](=O)[O-])c1N ?
stdout: 0.0306

====

Conditions: in ethyl acetate, 300.65 K
observed property: solubility (mole fraction)
// no unit, no text: just the number

stdin: # lookup: solubility (mole fraction) of Cc1cccc([N+](=O)[O-])c1N
stdout: 0.182

====

Settings: in acetone, 303.15 K
observed property: solubility (mole fraction)
Respond numerically, and do not add a unit to the figure.

stdin: Can you look up the measured solubility (mole fraction) of Cc1cccc([N+](=O)[O-])c1N for me?
stdout: 0.233

====

Details: in 1,4-dioxane, 300.65 K
observed property: solubility (mole fraction)
// print number alone

stdin: Would you kindly share the measured solubility (mole fraction) for Cc1cccc([N+](=O)[O-])c1N ?
stdout: 0.262

====

Settings: in ethyl acetate, 288.15 K
observed property: solubility (mole fraction)
// return a plain number; no unit text

stdin: Bench note: what solubility (mole fraction) did Cc1cccc([N+](=O)[O-])c1N show?
stdout: 0.121

====

Conditions: in isopropanol, 295.65 K
observed property: solubility (mole fraction)
Form: value (number only, do not type unit).

stdin: Quick one: solubility (mole fraction) of Cc1cccc([N+](=O)[O-])c1N ?
stdout: 0.0183

====

Settings: in n-propanol, 290.65 K
observed property: solubility (mole fraction)

stdin: # get_value(readout='solubility (mole fraction)', item= Cc1cccc([N+](=O)[O-])c1N )
stdout: 0.0183

====

Conditions: in acetone, 310.65 K
observed property: solubility (mole fraction)

stdin: # solubility (mole fraction) lookup, item Cc1cccc([N+](=O)[O-])c1N
stdout: 0.283

====

Details: in isopropanol, 285.65 K
observed property: solubility (mole fraction)
Form: value (number only, do not type unit).

stdin: Sample Cc1cccc([N+](=O)[O-])c1N — what was its solubility (mole fraction)?
stdout: 0.0119

====

Conditions: in methanol, 290.65 K
observed property: solubility (mole fraction)
Reply with just the number.

stdin: Requested field: solubility (mole fraction). Item: Cc1cccc([N+](=O)[O-])c1N
stdout: 0.0124

====

Details: in n-propanol, 298.15 K
observed property: solubility (mole fraction)
# print the numeric value only

stdin: Give the measured solubility (mole fraction) of Cc1cccc([N+](=O)[O-])c1N .
stdout: 0.0248

====

Conditions: in ethyl acetate, 303.15 K
observed property: solubility (mole fraction)
Answer using only a numeral; do not append any unit.

stdin: Suppose we examine the molecule Cc1cccc([N+](=O)[O-])c1N ; what solubility (mole fraction) value has been reported?
stdout: 0.196

====

Settings: in n-propanol, 280.65 K
observed property: solubility (mole fraction)
Lab note: jot the number down without any unit.

stdin: Using the record for Cc1cccc([N+](=O)[O-])c1N , report its solubility (mole fraction).
stdout: 0.012

====

Settings: in isopropanol, 293.15 K
observed property: solubility (mole fraction)
Give the figure only, with no unit attached.

stdin: Report solubility (mole fraction) for Cc1cccc([N+](=O)[O-])c1N please.
stdout: 0.0163

====

Conditions: in 1,4-dioxane, 303.15 K
observed property: solubility (mole fraction)
// return a plain number; no unit text

stdin: Could you tell me which solubility (mole fraction) is on file for Cc1cccc([N+](=O)[O-])c1N ?
stdout: 0.277

====

Conditions: in methanol, 280.65 K
observed property: solubility (mole fraction)
No unit in the answer, please; the number alone is enough.

stdin: Item Cc1cccc([N+](=O)[O-])c1N has what recorded solubility (mole fraction)?
stdout: 0.00829

====

Settings: in ethyl acetate, 308.15 K
observed property: solubility (mole fraction)
I only need the number, thanks.

stdin: Name the reported solubility (mole fraction) value associated with the molecule Cc1cccc([N+](=O)[O-])c1N
stdout: 0.228

====

Conditions: in isopropanol, 290.65 K
observed property: solubility (mole fraction)

stdin: Query: solubility (mole fraction); subject: Cc1cccc([N+](=O)[O-])c1N
stdout: 0.0147

====

Conditions: in ethanol, 283.15 K
observed property: solubility (mole fraction)
Write the value as a bare number.

stdin: Can you share its solubility (mole fraction)? I mean this molecule: Cc1cccc([N+](=O)[O-])c1N
stdout: 0.0125
